I'd be grateful if you could share measured pIC50 for these entries.
- ASSAY_SYSTEM: Mitogen-activated protein kinase 14 (Homo sapiens, UniProt Q16539)
- Sequence (Q16539 whole entry): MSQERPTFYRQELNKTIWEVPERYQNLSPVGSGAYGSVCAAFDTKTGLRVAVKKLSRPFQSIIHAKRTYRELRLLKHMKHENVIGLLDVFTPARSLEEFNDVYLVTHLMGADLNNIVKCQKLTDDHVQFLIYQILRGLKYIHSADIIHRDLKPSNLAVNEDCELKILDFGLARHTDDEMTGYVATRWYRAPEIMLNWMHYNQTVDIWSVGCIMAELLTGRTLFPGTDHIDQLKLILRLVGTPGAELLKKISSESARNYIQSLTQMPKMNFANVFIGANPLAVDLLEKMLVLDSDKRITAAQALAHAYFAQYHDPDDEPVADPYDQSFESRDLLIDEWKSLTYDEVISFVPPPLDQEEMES
- ASSAY: Inhibition of human recombinant p38alpha MAPK expressed in Escherichia coli by radioisotopic protein kinase assay
One number for each entry, as −log10 of the molar value.

Cc1cccc(-c2[nH]c(Cc3cccc(C(N)=O)c3)nc2-c2ccc3nccnc3c2)n1
5.37
COc1nccc(-c2c(-c3ccc(F)cc3)ncn2Cc2cccc(C#N)c2)n1
6.59
COc1ccc(CNc2nccc(-c3[nH]c(Cc4cccc(C#N)c4)nc3-c3ccc(F)cc3)n2)cc1
6.83
COc1nccc(-c2[nH]c(Cc3cccc(C(N)=O)c3)nc2-c2ccc(F)cc2)n1
7.31
C[C@H](Nc1nccc(-c2c(-c3ccc(F)cc3)ncn2Cc2cccc(C#N)c2)n1)c1ccccc1
6.85

Fill in pIC50 for each of the 2 molecules listed.
1. NC(=O)N(c1nc(-c2ccc(F)cc2)cs1)c1c(Cl)cccc1Cl
2. COc1nccc(-c2c(-c3ccc(F)cc3)ncn2Cc2cccc(C(N)=O)c2)n1

[6.09, 6.65]

Fill in pIC50 for each of the 4 molecules listed.
1. NC(=O)c1cccc(Cn2cnc(-c3ccc(F)cc3)c2-c2ccnc(NC3CC3)n2)c1
2. N#Cc1cccc(Cc2nc(-c3ccc(F)cc3)c(-c3ccnc(NC4CC4)n3)[nH]2)c1
3. COc1nccc(-c2[nH]c(Cc3cccc(C#N)c3)nc2-c2ccc(F)cc2)n1
4. NC(=O)c1cccc(Cn2cnc(-c3ccc(F)cc3)c2-c2ccnc(N)n2)c1

1: 7.56; 2: 7.26; 3: 7.20; 4: 6.46

---

- ASSAY_SYSTEM: Mitogen-activated protein kinase 14 (Homo sapiens, UniProt Q16539)
- ASSAY: Inhibition of human recombinant p38alpha MAPK expressed in Escherichia coli by radioisotopic protein kinase assay
READOUT: pIC50
Give bare numbers, as −log10 of the molar value.

Solved cases below.
C[C@H](Nc1nccc(-c2c(-c3ccc(F)cc3)ncn2Cc2ccc(C#N)cc2)n1)c1ccccc1
7.06
COc1nccc(-c2c(-c3ccc(F)cc3)ncn2Cc2ccc(C(N)=O)cc2)n1
6.04
NC(=O)c1cccc(Cc2nc(-c3ccc(F)cc3)c(-c3ccnc(NC4CC4)n3)[nH]2)c1
7.51

Moving on to another compound below.
State the measured pIC50 (Mitogen-activated protein kinase 14 (Homo sapiens, UniProt Q16539)) of C[C@H](Nc1nccc(-c2[nH]c(Cc3cccc(C(N)=O)c3)nc2-c2ccc(F)cc2)n1)c1ccccc1
7.11

---

I'd be grateful if you could share measured pIC50 for these entries.
- ASSAY_SYSTEM: Mitogen-activated protein kinase 14 (Homo sapiens)
- ASSAY: Inhibition of human recombinant p38alpha MAPK expressed in Escherichia coli by radioisotopic protein kinase assay
Give bare numbers, as −log10 of the molar value.

Solved cases below.
COc1nccc(-c2c(-c3ccc(F)cc3)ncn2Cc2ccc(C#N)cc2)n1
6.07
N#Cc1cccc(Cc2nc(-c3ccc(F)cc3)c(-c3ccnc(N)n3)[nH]2)c1
7.55

Moving on to another compound below.
State the measured pIC50 (Mitogen-activated protein kinase 14 (Homo sapiens)) of N#Cc1cccc(Cn2cnc(-c3ccc(F)cc3)c2-c2ccnc(NC3CC3)n2)c1
7.20

---

- ASSAY_SYSTEM: Mitogen-activated protein kinase 14 (Homo sapiens, UniProt Q16539)
- ASSAY: Inhibition of human recombinant p38alpha MAPK expressed in Escherichia coli by radioisotopic protein kinase assay
READOUT: IC50

Solved cases below.
COc1nccc(-c2ncn(Cc3cccc(C#N)c3)c2-c2ccc(F)cc2)n1
> 1 µM
C[C@H](Nc1nccc(-c2ncn(Cc3cccc(C#N)c3)c2-c2ccc(F)cc2)n1)c1ccccc1
> 1 µM

Moving on to another compound below.
Dear colleague, please send me the reported IC50 for C[C@H](Nc1nccc(-c2ncn(Cc3ccc(C(N)=O)cc3)c2-c2ccc(F)cc2)n1)c1ccccc1 when you can.
> 1 µM
